# System: 876862-298-R-J1-PDC complex spheroids, viability % test/control
# testName: Anticancer human tumor 876862-298-R-J1-PDC patient-derived endometrial carcinoma cell line growth inhibition [CLK]; active = viability on the fitted dose curve at most 10% of control; inactive = the rest
# measurementParameters: second compound 1 µM; first compound 1 µM
Permitted responses: active, inactive

For orientation, consider the following solved cases.
[
  {
    "molecule": "O=c1[nH]cc(F)c(=O)[nH]1 + CN1CCN(c2cc(C(=O)Nc3cc4cc(-c5cnn(C)c5)ccc4cn3)ccn2)CC1",
    "testedOn": "876862-298-R-J1-PDC complex spheroids, viability % test/control",
    "label": "active"
  },
  {
    "molecule": "CC(CO)NC(=O)c1cc(-c2ccc(Cl)cc2)nn(-c2cnn(C)c2)c1=O (stereo not drawn) + CNC(=O)c1ccc(Nc2nc(OC3CCCC3)c3c(-c4ccc5nc(C)oc5c4)c[nH]c3n2)c(OC)c1",
    "testedOn": "876862-298-R-J1-PDC complex spheroids, viability % test/control",
    "label": "inactive"
  }
]

Read the next record carefully.
Incoming: Any idea what this test logged for COc1cccc2c1C(=O)c1c(O)c3c(c(O)c1C2=O)CC(O)(C(=O)CO)CC3OC1CC(N)C(O)C(C)O1 (stereo not drawn) + CNC(=O)c1ccc(Nc2nc(OC3CCCC3)c3c(-c4ccc5nc(C)oc5c4)c[nH]c3n2)c(OC)c1 ?
Outgoing: active

====

# Tested on: 876862-298-R-J1-PDC complex spheroids, viability % test/control
# testName: Anticancer human tumor 876862-298-R-J1-PDC cell line growth inhibition [CLK]; active = viability on the fitted dose curve at most 10% of control; inactive = the rest;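 note: spheroids exposed to drugs for 7 days before readout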
# measurementParameters: second compound 3.16 µM; first compound 0.0316 µM
Valid outcomes are listed here; reply with one: active, inactive

Please review the following examples before continuing.
[
  {
    "compound": "CCCS(=O)(=O)Nc1ccc(F)c(C(=O)c2c[nH]c3ncc(-c4ccc(Cl)cc4)cc23)c1F + CN1CCN(c2cc(C(=O)Nc3cc4cc(-c5cnn(C)c5)ccc4cn3)ccn2)CC1",
    "label": "active"
  },
  {
    "compound": "COC1C=CCC(C)C(C)S(=O)(=O)NC(=O)c2ccc3c(c2)N(CC2CCC21)CC1(CCCc2cc(Cl)ccc21)CO3 (stereo unspecified) + CN1CCN(c2cc(C(=O)Nc3cc4cc(-c5cnn(C)c5)ccc4cn3)ccn2)CC1",
    "label": "active"
  }
]

Incoming: What did this assay record as the result for Nc1ccccc1NC(=O)c1ccc(CNC(=O)OCc2cccnc2)cc1 + CN1CCN(c2cc(C(=O)Nc3cc4cc(-c5cnn(C)c5)ccc4cn3)ccn2)CC1 ?
Outgoing: active

Incoming: Would you mind telling me which call this test gave CCN1CCN(Cc2ccc(Nc3ncc(F)c(-c4cc(F)c5nc(C)n(C(C)C)c5c4)n3)nc2)CC1 + CN1CCN(c2cc(C(=O)Nc3cc4cc(-c5cnn(C)c5)ccc4cn3)ccn2)CC1 ?
Outgoing: active

Incoming: Assay outcome for CCN1CCN(Cc2ccc(Nc3ncc(F)c(-c4cc(F)c5nc(C)n(C(C)C)c5c4)n3)nc2)CC1 + CNC(=O)c1ccc(Nc2nc(OC3CCCC3)c3c(-c4ccc5nc(C)oc5c4)c[nH]c3n2)c(OC)c1 : what was it?
Outgoing: inactive

Incoming: State the result this test recorded for C#Cc1c(F)ccc2cc(O)cc(-c3ncc4c(N5CC6CCC(C5)N6)nc(OCC56CCCN5CC(F)C6)nc4c3F)c12 (stereo unspecified) + CNC(=O)c1ccc(Nc2nc(OC3CCCC3)c3c(-c4ccc5nc(C)oc5c4)c[nH]c3n2)c(OC)c1 .
Outgoing: inactive
